Target: Cytochrome P450 1A2 (Homo sapiens) (UniProt P05177)
Sequence (P05177 whole entry, looked up): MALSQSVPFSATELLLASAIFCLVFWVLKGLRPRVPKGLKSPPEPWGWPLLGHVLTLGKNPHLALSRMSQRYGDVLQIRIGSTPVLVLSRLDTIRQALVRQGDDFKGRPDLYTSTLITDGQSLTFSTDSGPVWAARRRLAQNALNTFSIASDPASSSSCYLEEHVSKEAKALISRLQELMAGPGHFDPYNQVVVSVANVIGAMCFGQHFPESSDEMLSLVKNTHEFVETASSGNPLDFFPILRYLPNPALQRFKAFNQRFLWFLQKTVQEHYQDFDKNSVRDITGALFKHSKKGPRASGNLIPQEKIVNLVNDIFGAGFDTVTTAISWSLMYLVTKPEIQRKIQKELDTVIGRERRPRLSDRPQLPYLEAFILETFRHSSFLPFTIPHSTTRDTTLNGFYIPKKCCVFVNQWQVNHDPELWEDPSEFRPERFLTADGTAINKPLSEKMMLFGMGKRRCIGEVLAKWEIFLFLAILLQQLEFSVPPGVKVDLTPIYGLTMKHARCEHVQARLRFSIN
Test: p450-cyp1a2 (AID 410)
Conditions: recombinant CYP1A2, luciferin-ME demethylation, luminescence; series mostly up to 11.4 µM
Inconclusive results are not listed. The source made the active and inactive calls. Calls follow the shape of the full dose curve.
Use one of these outcomes when replying: true = active, false = inactive

Reference set, count: 10
Chem smiles | Class
O=C(O)Cc1cc(Cl)ccc1O | false
C[C@@H](CNC(N)=O)NC(N)=O | false
NC1=C(O)C(=O)[C@H](c2c[nH]c3ccc(OCc4ccccc4)cc23)O1 | true
Cc1ccc(Nc2nnc(-c3ccc4c(c3)OCO4)o2)c(C)c1 | true
Cn1c(Sc2ccc(-c3cccnc3)n2C)ccc1-c1cccnc1 | true
N#CC(C#N)=NNc1ccc2cn[nH]c2c1 | true
CN(C)c1ccc(-c2cc(NCc3ccccc3)ncn2)cc1 | true
CC[N+](C)(CC)CCN1C(=O)c2ccccc2S1(=O)=O | false
C[C@@H]1NCC[C@H](CC(=O)O)[C@H]1CC(=O)O | false
C[C@H](O)[C@H](O)[C@@H]1CNc2nc(N)[nH]c(=O)c2N1 | false

[ask] State the result this test recorded for COc1ccc2c(=O)cc(-c3ccncc3)oc2c1OC .
[reply] true

[ask] What about this compound? O=C(O)CCCSc1ccccc1
[reply] false

[ask] What about this compound? CN(C)C(=O)c1ccc(-c2nc(Nc3ccc(F)cc3)c3ccccc3n2)cc1
[reply] true

[ask] What about this compound? O=S(O)O.O=S(O)O.[Co].[NH2-].[NH2-].[NH2-].[NH2-]
[reply] false

---

Target: Glucocorticoid receptor (Homo sapiens) (UniProt P04150)
Sequence (P04150 whole entry, looked up): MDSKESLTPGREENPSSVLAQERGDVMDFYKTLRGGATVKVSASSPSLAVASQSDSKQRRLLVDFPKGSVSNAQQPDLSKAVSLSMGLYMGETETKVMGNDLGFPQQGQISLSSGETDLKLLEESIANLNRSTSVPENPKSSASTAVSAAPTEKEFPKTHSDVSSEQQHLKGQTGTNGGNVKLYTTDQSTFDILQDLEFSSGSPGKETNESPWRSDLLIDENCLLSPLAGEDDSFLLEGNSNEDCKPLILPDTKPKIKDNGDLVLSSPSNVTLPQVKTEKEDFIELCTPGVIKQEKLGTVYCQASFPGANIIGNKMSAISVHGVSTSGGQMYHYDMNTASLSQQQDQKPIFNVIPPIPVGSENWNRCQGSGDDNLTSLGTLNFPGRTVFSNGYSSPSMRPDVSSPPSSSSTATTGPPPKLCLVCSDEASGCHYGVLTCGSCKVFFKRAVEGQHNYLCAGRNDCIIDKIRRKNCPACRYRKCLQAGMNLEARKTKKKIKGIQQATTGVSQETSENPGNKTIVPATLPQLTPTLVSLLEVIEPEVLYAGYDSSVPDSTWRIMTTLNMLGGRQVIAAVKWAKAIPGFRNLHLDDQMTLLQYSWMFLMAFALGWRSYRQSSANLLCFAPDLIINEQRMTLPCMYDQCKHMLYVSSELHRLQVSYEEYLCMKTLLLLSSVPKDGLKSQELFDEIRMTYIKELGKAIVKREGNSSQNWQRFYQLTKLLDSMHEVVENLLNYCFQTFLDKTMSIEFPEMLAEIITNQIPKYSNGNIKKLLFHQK
Test: GR-EFC Redistribution (AID 451); also: potency is read from the fitted curve at half-maximal effect
Conditions: CHO-K1 GR-EFC translocation, beta-gal luminescence, 2 h
Activity calls are given as the source filed them. The call rests on the fitted dose curve.
Overview of reported Potency across a group of compounds:

Here are 5 compounds together with their reported answers.
Compound | Reported value
O=S(=O)(O)c1ccc(N=Nc2ccc3c(S(=O)(=O)O)cccc3c2O)c2ccccc12 | > 9.22 µM (inactive)
C=C(CC(=O)O)C(=O)O (tested in a mixture with another compound) | > 9.22 µM (inactive)
CC1(C)[C@@H](CC(=O)O)CCC[C@@H]1CC(=O)O | > 9.22 µM (inactive)
CC[C@@H](Nc1ncnc2nc[nH]c12)C(=O)O | > 9.22 µM (inactive)
O=C(O)C(Cc1cccs1)C(=O)O | > 9.22 µM (inactive)

[ask] Give the measured Potency of NC(N)=NC[C@H](N)C(=O)O .
[reply] > 9.22 µM (inactive)

[ask] What about this compound? O=C(N[C@@]1(C(=O)O)C[C@@H]1c1ccccc1)c1ccccc1
[reply] > 9.22 µM (inactive)

[ask] What about this compound? CC1(C)N=C(N)N=C(N)N1CCCCc1ccccc1
[reply] > 9.22 µM (inactive)

---

Assay: Cell Viability - LYMP1-002 - Assay at 24 hr (AID 993)
Settings: LYMP1-002 lymphoblastoid cells viability; series mostly up to 92.2 µM
Active and inactive are the calls of the source. Calls come from the whole dose curve; as a rule, active = well fitted cell-killing curve with a large enough effect; inconclusive = small, poorly fitted or top-dose-only effect; inactive = flat fitted curve, though single readings scatter.
Use one of these outcomes when replying: active, inactive

Reference set, count: 3
Compound | Class
Oc1cc(Cl)cc(Cl)c1Cl | inactive
C=CC(C)(O)CCCC(C)CCCC(C)CCCC(C)C (stereo unspecified) | inactive
COc1ccc([N+](=O)[O-])cc1N | inactive

[ask] State the result this test recorded for CC(=O)OCc1ccc2c(c1)OCO2 .
[reply] inactive

[ask] What about this compound? CCOC(=O)C1OC1c1ccccc1 (stereo unspecified)
[reply] inactive

[ask] What about this compound? c1ccc(SCCSc2ccccc2)cc1
[reply] inactive

[ask] What about this compound? COc1cc(-c2ccc(N=C=O)c(OC)c2)ccc1N=C=O
[reply] inactive

[ask] What about this compound? O=CC(=O)c1ccccc1
[reply] inactive

Data origin, for the record: PubChem BioAssay (NCATS)
